Measured EC50 accompanies every entry in the list below.
Biological target: human thyroid receptor beta ligand-binding domain (LBD) (Homo sapiens, UniProt P10828)
Sequence (P10828 217-461 limits assumed): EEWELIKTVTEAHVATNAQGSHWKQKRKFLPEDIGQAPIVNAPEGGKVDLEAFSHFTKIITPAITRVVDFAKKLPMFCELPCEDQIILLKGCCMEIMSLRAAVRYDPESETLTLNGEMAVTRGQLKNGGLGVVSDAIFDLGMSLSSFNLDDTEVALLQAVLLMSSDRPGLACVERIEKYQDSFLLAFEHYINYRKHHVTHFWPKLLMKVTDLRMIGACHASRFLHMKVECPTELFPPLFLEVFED
Assay: TR-FRET thyroid receptor beta coactivator assay (THR biochemical assay, Assay 1)
Conditions: THR-beta, TR-FRET coactivator assay; read-out: Activity category Assay 1 (EC50, THR-beta agonist)
From the text: The TR-FRET thyroid receptor beta coactivator assay was used with slight, optimized modifications of the manufacturer's protocol (Invitrogen). […] The energy transfer is detected as an increase in the fluorescence emission of the fluorescein acceptor, and a decrease in the fluorescence emission of the terbium donor. […]

>  <compound>
Nc1nn(-c2cc(Cl)c(Oc3cc(-c4cccc(F)c4)c(=O)[nH]n3)c(Cl)c2)c(=O)[nH]c1=O [Compound 69]

>  <assay.readout>
EC50

>  <observed.result>
50 to 250 nM

$$$$

Query for human thyroid receptor beta ligand-binding domain (LBD) (Homo sapiens, UniProt P10828): what EC50 does the record show for Cc1ccc(-c2cc(=O)[nH]nc2Oc2c(Cl)cc(-n3nc(N)c(=O)[nH]c3=O)cc2Cl)cc1C [Compound 113] ?
50 to 250 nM

Query for human thyroid receptor beta ligand-binding domain (LBD) (Homo sapiens, UniProt P10828): what EC50 does the record show for Nc1nn(-c2cc(Cl)c(Oc3cc(Cc4ccccc4)c(=O)[nH]n3)c(Cl)c2)c(=O)[nH]c1=O [Compound 65] ?
< 50 nM

Query for human thyroid receptor beta ligand-binding domain (LBD) (Homo sapiens, UniProt P10828): what EC50 does the record show for CC(C)c1n[nH]c2nnc(Oc3c(Cl)cc(-n4nc(C#N)c(=O)[nH]c4=O)cc3Cl)cc12 [Compound 75A] ?
< 50 nM

Query for human thyroid receptor beta ligand-binding domain (LBD) (Homo sapiens, UniProt P10828): what EC50 does the record show for Nc1nn(-c2cc(Cl)c(Oc3cc(C4CC(F)(F)C4)c(=O)[nH]n3)c(Cl)c2)c(=O)[nH]c1=O [Compound 106] ?
250 to 1000 nM

Query for human thyroid receptor beta ligand-binding domain (LBD) (Homo sapiens, UniProt P10828): what EC50 does the record show for CC(C)c1cc(Oc2c(Cl)cc(-n3nc(N)c(=O)[nH]c3=O)cc2Br)n[nH]c1=O [Compound 80] ?
< 50 nM

Query for human thyroid receptor beta ligand-binding domain (LBD) (Homo sapiens, UniProt P10828): what EC50 does the record show for Nc1nn(-c2cc(Cl)c(Oc3cc(-c4ccn5cncc5c4)c(=O)[nH]n3)c(Cl)c2)c(=O)[nH]c1=O [Compound 126] ?
> 25000 nM
